Listed molecules paired with reported GI50
Test system: DU-145
Test: NCI tumour cell line growth inhibition, 48 h
The source made the active and inactive calls. Cut-off read from the data, not from the text of the source: active = GI50 up to about 1.1 µM and inactive = higher.

CCOC(=O)NC1CN2CCC1CC2 (configuration not stated) | > 100 µM (inactive)
COC(=O)C1SC(N(C)c2ccccc2)=NC12c1ccccc1Nc1ccccc12 (configuration not stated) | 25.7 µM (inactive)

query: Param readout = GI50; param system = DU-145; param query = COC(=O)c1ccc2[nH]c3c(c2c1)CC(=O)Nc1ccccc1-3 ; response: value
result: 45.7 µM (inactive)

query: Param readout = GI50; param system = DU-145; param query = C=Cc1nc2nnc(CCCCCCCCc3nnc4nc(C=C)[nH]n34)n2[nH]1 ; response: value
result: > 100 µM (inactive)

query: Param readout = GI50; param system = DU-145; param query = CC(=O)Oc1c(OC(C)C)c(C)c(O[Si](C(C)C)(C(C)C)C(C)C)c2[nH]c3ccccc3c12 ; response: value
result: > 100 µM (inactive)

query: Param readout = GI50; param system = DU-145; param query = C=CCN1C(=O)C[C@H](Cc2ccccc2)NC(=O)C[C@H](Cc2ccccc2)N(CC=C)C(=O)C[C@H](Cc2ccccc2)NC(=O)C[C@@H]1Cc1ccccc1 ; response: value
result: > 100 µM (inactive)

query: Param readout = GI50; param system = DU-145; param query = COc1cc(C2S/C(=C/c3ccccc3)C(=O)N2c2ccc(Cl)c(Cl)c2)cc(OC)c1OC (configuration not stated) ; response: value
result: 38.7 µM (inactive)

query: Param readout = GI50; param system = DU-145; param query = O=C1/C(=C/c2cccc(Cl)c2)CCCc2ccccc21 ; response: value
result: 19.2 µM (inactive)

query: Param readout = GI50; param system = DU-145; param query = COc1ccc(-n2c(N)c(C#N)c(C#N)c2-c2cccc([N+](=O)[O-])c2)cc1 ; response: value
result: 43.3 µM (inactive)

query: Param readout = GI50; param system = DU-145; param query = COc1cc(C2c3cc4c(cc3OC(N3CCOCC3)C2C)OCO4)cc(OC)c1OC(C)=O (configuration not stated) ; response: value
result: 26.5 µM (inactive)

query: Param readout = GI50; param system = DU-145; param query = c1ccc(C2=NCCN2)c(C2=NCCN2)c1 ; response: value
result: > 100 µM (inactive)

query: Param readout = GI50; param system = DU-145; param query = CCCCCCCCCCc1c2nc(c(CCCCCCCCCC)c3ccc([nH]3)c(CCCCCCCCCC)c3nc(c(CCCCCCCCCC)c4ccc1[nH]4)C=C3)C=C2 ; response: value
result: > 100 µM (inactive)

query: Param readout = GI50; param system = DU-145; param query = Nc1ccc(/N=N/c2c(S(=O)(=O)O)cc3ccccc3c2S(=O)(=O)O)cc1 ; response: value
result: > 100 µM (inactive)

query: Param readout = GI50; param system = DU-145; param query = CC1(C)C2CC3C(C)(C2)C31c1cc(Cl)ccc1N (configuration not stated) ; response: value
result: 14 µM (inactive)

query: Param readout = GI50; param system = DU-145; param query = NNC(=O)c1nn[nH]c1C(=O)NN ; response: value
result: > 100 µM (inactive)

query: Param readout = GI50; param system = DU-145; param query = COc1cc(/C=N/NC(=O)c2ccc(NC(C)=O)cc2OC)ccc1O ; response: value
result: 69.5 µM (inactive)

query: Param readout = GI50; param system = DU-145; param query = N=C(N)/N=C(\N)Nc1ccc(C(=O)O)cc1 ; response: value
result: > 100 µM (inactive)

query: Param readout = GI50; param system = DU-145; param query = CN(C(=O)C1=CCC2(CC1)OCCO2)c1ccccc1OS(=O)(=O)C(F)(F)F ; response: value
result: > 100 µM (inactive)
